B1: HMOX1 (parent)
chain: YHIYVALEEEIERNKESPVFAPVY

Variants of: B1
protocol: protein stability index of a GFP-peptide fusion (GPS, HEK-293T) (PSI 1-6); higher = more stable;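 further: lentivirally expressed fusions sorted by FACS into six bins by GFP to DsRed ratio, PSI derived from sequencing read proportions per bin multiplied by bin number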
experimental.parameters: c terminus: a fixed tail appended
quantity: protein stability index
In your answer, state the number alone without any accompanying words.

Field protein stability index (entry YHIYVALMEEIERNKESPVFAPVY [E8M] ) reads 4.06

Field protein stability index (entry YWIYVALEEEIERNKESPVFAPVY [H2W] ) reads 1.38

Field protein stability index (entry YHIYVALEEEIENNKESPVFAPVY [R13N] ) reads 1.23

Field protein stability index (entry YHIYVALEEEIERNKESPVFAPRY [V23R] ) reads 2.87

Field protein stability index (entry YHIYVALEEEIEFNKESPVFAPVY [R13F] ) reads 2.97

Field protein stability index (entry YHIYVALEEEIERVKESPVFAPVY [N14V] ) reads 1.49

Field protein stability index (entry YHIYVALEFEIERNKESPVFAPVY [E9F] ) reads 2.43

Field protein stability index (entry YHIYVALEEEIERNKESPRFAPVY [V19R] ) reads 3.44

Field protein stability index (entry YHIYVALTEEIERNKESPVFAPVY [E8T] ) reads 2.19

Field protein stability index (entry YHIYVALEEEIERNKESPNFAPVY [V19N] ) reads 2.69

Field protein stability index (entry YHIYVALEEEIERNKGSPVFAPVY [E16G] ) reads 2.04
